Source listed as patent EP3212201B1.

Biological target: FRAP1 (mTOR) (Homo sapiens, UniProt P42345)
Assay: FRET-based coupled-enzyme protein kinase inhibition assay
Type: biochemical
Conditions: compound at 10 µM, 1% DMSO
Measured inhibition at 10 µM, listed per entry for reference.
quantity: inhibition at 10 µM (%)

INSERT INTO measurements (compound, quantity, measured) VALUES
  ('CC(C)N1CCC(NC(=O)OC[C@H]2O[C@@H](n3cnc4c(N)ncnc43)[C@H](O)[C@@H]2O)CC1 [Compound C19]', 'inhibition at 10 µM', 5),
  ('Nc1ncnc2c1ncn2[C@@H]1O[C@H](COC(=O)NCCN2CCCC2=O)[C@@H](O)[C@H]1O [Compound C22]', 'inhibition at 10 µM', 0),
  ('Nc1ncnc2c1ncn2[C@@H]1O[C@H](COC(=O)N2CCC(Cc3ccc(F)cc3)C2)[C@@H](O)[C@H]1O (stereo partly shown) [Compound C66]', 'inhibition at 10 µM', -4),
  ('Nc1ncnc2c1ncn2[C@@H]1O[C@H](COC(=O)N[C@@H]2CCN(Cc3ccccc3)C2)[C@@H](O)[C@H]1O [Compound C10]', 'inhibition at 10 µM', -3),
  ('CN1CCN(CCNC(=O)OC[C@H]2O[C@@H](n3cnc4c(N)ncnc43)[C@H](O)[C@@H]2O)CC1 [Compound C46]', 'inhibition at 10 µM', 5),
  ('Nc1ncnc2c1ncn2[C@@H]1O[C@H](COC(=O)N2CCN(Cc3ccccc3)CC2CO)[C@@H](O)[C@H]1O (stereo partly shown) [Compound C13]', 'inhibition at 10 µM', -1),
  ('Nc1ncnc2c1ncn2[C@@H]1O[C@H](COC(=O)NC[C@H](O)CO)[C@@H](O)[C@H]1O [Compound C8]', 'inhibition at 10 µM', 5),
  ('CN(C)CCNC(=O)OC[C@H]1O[C@@H](n2cnc3c(N)ncnc32)[C@H](O)[C@@H]1O [Compound C85]', 'inhibition at 10 µM', 2),
  ('C[C@@H](NC(=O)OC[C@H]1O[C@@H](n2cnc3c(N)ncnc32)[C@H](O)[C@@H]1O)c1ccc(Cl)cc1 [Compound C4]', 'inhibition at 10 µM', -5),
  ('Nc1ncnc2c1ncn2[C@@H]1O[C@H](COC(=O)NCCCc2nc3ccccc3[nH]2)[C@@H](O)[C@H]1O [Compound C1]', 'inhibition at 10 µM', -2),
  ('Nc1ncnc2c1ncn2[C@@H]1O[C@H](COC(=O)N2CCS(=O)(=O)CC2)[C@@H](O)[C@H]1O [Compound C100]', 'inhibition at 10 µM', -2),
  ('Nc1ncnc2c1ncn2[C@@H]1O[C@H](COC(=O)N2CCN(C(=O)N3CCOCC3)CC2)[C@@H](O)[C@H]1O [Compound C89]', 'inhibition at 10 µM', -4),
  ('Nc1ncnc2c1ncn2[C@@H]1O[C@H](COC(=O)N2CCN(CCc3ccccc3)CC2)[C@@H](O)[C@H]1O [Compound C26]', 'inhibition at 10 µM', -6),
  ('N#CCCN1CCN(C(=O)OC[C@H]2O[C@@H](n3cnc4c(N)ncnc43)[C@H](O)[C@@H]2O)CC1 [Compound C70]', 'inhibition at 10 µM', -6),
  ('Nc1ncnc2c1ncn2[C@@H]1O[C@H](COC(=O)N2CCC[C@H]2CO)[C@@H](O)[C@H]1O [Compound C9]', 'inhibition at 10 µM', -3),
  ('CS(=O)(=O)N1CC2(CCN(C(=O)OC[C@H]3O[C@@H](n4cnc5c(N)ncnc54)[C@H](O)[C@@H]3O)CC2)c2ccccc21 [Compound C98]', 'inhibition at 10 µM', 2);
